molecular target: Cytochrome P450 2C19 (Homo sapiens, UniProt P33261)
Sequence (P33261 whole entry): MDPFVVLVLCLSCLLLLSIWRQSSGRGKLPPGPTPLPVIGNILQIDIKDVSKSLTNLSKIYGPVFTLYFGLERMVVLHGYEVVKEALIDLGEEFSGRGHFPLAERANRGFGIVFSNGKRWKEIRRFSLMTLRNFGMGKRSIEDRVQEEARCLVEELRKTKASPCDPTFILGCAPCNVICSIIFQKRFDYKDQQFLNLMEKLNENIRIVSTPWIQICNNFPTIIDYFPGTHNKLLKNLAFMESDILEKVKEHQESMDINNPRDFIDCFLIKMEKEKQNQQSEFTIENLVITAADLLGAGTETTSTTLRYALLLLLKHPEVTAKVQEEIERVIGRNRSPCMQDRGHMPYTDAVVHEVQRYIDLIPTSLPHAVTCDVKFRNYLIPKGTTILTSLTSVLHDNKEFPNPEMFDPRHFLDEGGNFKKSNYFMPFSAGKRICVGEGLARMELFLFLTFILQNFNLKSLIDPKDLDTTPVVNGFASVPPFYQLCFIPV
quantityName: pIC50
Give bare numbers, as −log10 of the molar value.

Task: Recorded pIC50 of O=S(=O)(Nc1cc(-c2ccsc2)no1)c1ccccc1F , please.
Output: 4.55

###

molecular target: Cytochrome P450 2C9 (Homo sapiens)
Sequence (P11712 whole entry): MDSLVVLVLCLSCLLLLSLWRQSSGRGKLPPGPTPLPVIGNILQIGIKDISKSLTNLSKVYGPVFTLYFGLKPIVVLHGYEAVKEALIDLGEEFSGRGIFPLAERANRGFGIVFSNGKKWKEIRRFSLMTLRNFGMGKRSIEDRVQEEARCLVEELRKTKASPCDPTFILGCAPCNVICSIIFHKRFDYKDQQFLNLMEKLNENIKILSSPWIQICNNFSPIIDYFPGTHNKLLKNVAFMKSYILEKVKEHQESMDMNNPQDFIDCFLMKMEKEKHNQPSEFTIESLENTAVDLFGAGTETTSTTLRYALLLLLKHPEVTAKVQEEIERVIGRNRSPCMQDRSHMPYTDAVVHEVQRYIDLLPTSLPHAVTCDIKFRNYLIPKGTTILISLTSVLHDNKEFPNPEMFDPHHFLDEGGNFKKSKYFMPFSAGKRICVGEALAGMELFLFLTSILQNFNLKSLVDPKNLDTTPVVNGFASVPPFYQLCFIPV
quantityName: IC50
Please answer using a numeric value trailed by its unit.

Task: Recorded IC50 of O=S(=O)(Nc1cc(-c2ccsc2)no1)c1ccccc1F , please.
Output: 3.2 µM

###

Can you tell me microsomal CLint for the items I'm about to list?
test: Metabolic stability in mouse liver microsomes assessed as intrinsic clearance; assay type: ADME, Microsome; settings: read-out: CLH
Answers are plain numbers, in µL/min/mg.

Task: Recorded microsomal CLint of O=S(=O)(Nc1cc(-c2ccsc2)no1)c1ccccc1F , please.
Output: 5.6

Now for another entry.
Task: Recorded microsomal CLint of O=S(=O)(Nc1cc(-c2ccsc2)no1)C1CCOCC1 , please.
Output: 0.2

###

experiment: Apparent permeability in human Caco-2 cells across apical to basolateral side; assay type: ADME, cell-based
quantityName: Papp A→B (×10⁻⁶ cm/s)
Answers are plain numbers, in ×10⁻⁶ cm/s.

Task: Recorded Papp A→B of O=S(=O)(Nc1cc(-c2ccsc2)no1)c1ccccc1F , please.
Output: 3.6

###

Can you tell me Tmax for the items I'm about to list?
experiment: Tmax in male CD-1 mouse at 20 mg/kg, po; format: ADME, organism-based; conditions: in vivo
One number for each entry, in min.

Task: Recorded Tmax of O=S(=O)(Nc1cc(-c2ccsc2)no1)c1ccccc1F , please.
Output: 40.2

Now for another entry.
Task: Recorded Tmax of O=S(=O)(Nc1cc(-c2ccsc2)no1)C1CCOCC1 , please.
Output: 40.2

###

assay: MRT (0 tot 24 hrs) in male CD-1 mouse at 20 mg/kg, po; format: ADME, organism-based; settings: in vivo
Can you tell me MRT last at 24 h for the items I'm about to list?
Numbers only, in h.

Task: Recorded MRT last at 24 h of O=S(=O)(Nc1cc(-c2ccsc2)no1)C1CCOCC1 , please.
Output: 1.7

---
Task: Recorded MRT last at 24 h of O=S(=O)(Nc1cc(-c2ccsc2)no1)c1ccccc1F , please.
Output: 3.44

###

target: Voltage-gated inwardly rectifying potassium channel KCNH2 (Homo sapiens)
Sequence (Q12809 whole entry): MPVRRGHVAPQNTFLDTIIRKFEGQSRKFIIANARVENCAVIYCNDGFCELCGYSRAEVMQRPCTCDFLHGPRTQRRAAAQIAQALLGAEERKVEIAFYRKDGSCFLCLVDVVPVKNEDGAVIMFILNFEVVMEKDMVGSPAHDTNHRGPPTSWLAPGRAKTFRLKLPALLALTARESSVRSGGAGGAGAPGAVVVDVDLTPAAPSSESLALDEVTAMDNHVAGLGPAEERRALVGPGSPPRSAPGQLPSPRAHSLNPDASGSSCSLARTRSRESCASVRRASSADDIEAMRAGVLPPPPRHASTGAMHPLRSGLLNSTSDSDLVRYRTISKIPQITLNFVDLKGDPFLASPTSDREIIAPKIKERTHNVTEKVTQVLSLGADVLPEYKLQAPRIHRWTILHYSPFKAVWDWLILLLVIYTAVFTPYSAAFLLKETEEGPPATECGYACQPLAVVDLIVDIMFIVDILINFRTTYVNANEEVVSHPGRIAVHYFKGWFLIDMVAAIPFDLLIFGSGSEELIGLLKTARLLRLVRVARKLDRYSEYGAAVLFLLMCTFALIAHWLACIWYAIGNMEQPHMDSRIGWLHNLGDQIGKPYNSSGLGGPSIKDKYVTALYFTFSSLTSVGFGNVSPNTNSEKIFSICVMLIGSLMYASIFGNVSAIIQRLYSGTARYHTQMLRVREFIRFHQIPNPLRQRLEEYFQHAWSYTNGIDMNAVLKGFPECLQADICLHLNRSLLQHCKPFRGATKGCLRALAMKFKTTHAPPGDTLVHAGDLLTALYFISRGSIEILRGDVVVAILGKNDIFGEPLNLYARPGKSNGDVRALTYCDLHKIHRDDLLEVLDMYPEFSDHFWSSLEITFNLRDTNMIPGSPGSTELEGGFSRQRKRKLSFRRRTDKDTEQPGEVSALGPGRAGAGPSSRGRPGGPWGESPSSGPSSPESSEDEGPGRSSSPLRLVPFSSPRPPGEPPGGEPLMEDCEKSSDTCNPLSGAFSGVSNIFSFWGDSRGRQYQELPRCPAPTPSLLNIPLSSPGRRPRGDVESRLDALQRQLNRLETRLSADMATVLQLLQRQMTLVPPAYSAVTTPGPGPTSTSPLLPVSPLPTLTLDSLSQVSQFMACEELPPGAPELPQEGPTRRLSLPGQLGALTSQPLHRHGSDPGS
pIC50: −log10 of the molar value.
quantityName: pIC50

Task: Recorded pIC50 of O=S(=O)(Nc1cc(-c2ccsc2)no1)c1ccccc1F , please.
Output: < 4.52

###

experiment: Cmax in male CD-1 mouse at 20 mg/kg, po; type: ADME, organism-based; conditions: in vivo
quantityName: Cmax (ng/mL)
One number for each entry, in ng/mL.

Task: Recorded Cmax of O=S(=O)(Nc1cc(-c2ccsc2)no1)C1CCOCC1 , please.
Output: 24200

Now for another entry.
Task: Recorded Cmax of O=S(=O)(Nc1cc(-c2ccsc2)no1)c1ccccc1F , please.
Output: 64200

###

test: AUC (0 tot 24 hrs) in male CD-1 mouse at 20 mg/kg, po; format: ADME, organism-based; settings: in vivo
quantityName: AUC(0-t) at 24 h (ng·h/mL)
One number for each entry, in ng·h/mL.

Task: Recorded AUC(0-t) at 24 h of O=S(=O)(Nc1cc(-c2ccsc2)no1)C1CCOCC1 , please.
Output: 713

---
Task: Recorded AUC(0-t) at 24 h of O=S(=O)(Nc1cc(-c2ccsc2)no1)c1ccccc1F , please.
Output: 4450

This collection of values is drawn from ChEMBL document CHEMBL6114961.
